Target: HTR2C (Homo sapiens, UniProt P28335)
Construct: β-galactosidase enzyme fragment for EFC (ProLink by own knowledge)
Sequence (P28335 33-458): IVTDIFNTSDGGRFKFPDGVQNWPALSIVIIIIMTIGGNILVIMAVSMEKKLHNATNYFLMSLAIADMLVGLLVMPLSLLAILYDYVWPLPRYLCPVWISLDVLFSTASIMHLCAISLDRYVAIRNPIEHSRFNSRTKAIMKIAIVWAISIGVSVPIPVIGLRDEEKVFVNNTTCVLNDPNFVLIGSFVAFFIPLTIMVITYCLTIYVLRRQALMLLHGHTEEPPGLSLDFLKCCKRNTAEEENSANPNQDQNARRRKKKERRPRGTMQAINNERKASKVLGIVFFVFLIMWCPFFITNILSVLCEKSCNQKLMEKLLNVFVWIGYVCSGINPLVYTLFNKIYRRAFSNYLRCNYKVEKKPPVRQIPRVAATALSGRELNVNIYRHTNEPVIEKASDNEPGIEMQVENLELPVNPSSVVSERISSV
Assay: PathHunter β-arrestin GpcrMAX assay
Settings: antagonist dose–response, 10-point, U2OS cells, 30 min
endpoint: IC50

May I ask what IC50 has been recorded for CC(=O)N[C@@H](CCCC#C/C=C/Cl)CCCCCCC(Cl)Cl [Compound 4, taveuniamide F] ?
> 50 µM
